Origin of the recorded values: paper PMC12392461

test system: ERα-UAS-bla GripTite cells; conditions: Table S10; TKcytotoxicity-Ratio
Listed below: TKcytotoxicity values for each entry.
# respond with the number and nothing more

Example cases with answers are listed next.
{"columns": ["molecule", "TKcytotoxicity"],
 "data": [
  ["Oc1ccc(C2(c3ccc(O)cc3)CCCCC2)cc1 [BPZ, 1,1'-Bis(4-hydroxyphenyl)cyclohexane]", 0.53],
  ["CCC(C)(c1ccc(O)cc1)c1ccc(O)cc1 [BPB, 4,4'-(Butane-2,2-diyl)diphenol]", 0.24],
  ["COC(=O)C(c1ccc(O)cc1)c1ccc(O)cc1 [Bz, Methyl bis(4-hydroxyphenyl)acetate]", 2.48]
]}

## Input TKcytotoxicity lookup needed for Oc1ccc(Cc2ccc(O)cc2)cc1 [BPF, Bis(4-hydroxyphenyl)methane] , thanks.
## Output 0.75

## Input Then this molecule: CC(C)Oc1ccc(S(=O)(=O)c2ccc(O)cc2)cc1 [D8, 4-((4-Isopropoxyphenyl)sulfonyl)phenol]
## Output 0.94

## Input Then this molecule: CC(C)(c1ccc(O)cc1)c1ccc(O)cc1 [BPA, 4,4'-(Propane-2,2-diyl)diphenol, reference compound]
## Output 1.13

---

tested on: MCF7 (ARE/MMP); conditions: against baseline cytotoxicity, ARE readout
measured.endpoint: Toxic ratio (TR) TRARE

Example cases with answers are listed next.
{"columns": ["compound", "system", "Toxic ratio (TR) TRARE"],
 "data": [
  ["COC(=O)C(c1ccc(O)cc1)c1ccc(O)cc1 [Bz, Methyl bis(4-hydroxyphenyl)acetate]", "MCF7 (ARE/MMP)", 0.70],
  ["CC(C)c1cc(C(C)(C)c2ccc(O)c(C(C)C)c2)ccc1O", "MCF7 (ARE/MMP)", 0.88],
  ["CC(C)(c1ccc(OCC2CO2)cc1)c1ccc(OCC2CO2)cc1 (stereo not shown)", "MCF7 (ARE/MMP)", 0.61]
]}

Read the next record carefully.
## Input Toxic ratio (TR) TRARE lookup needed for CC(C)Oc1ccc(S(=O)(=O)c2ccc(O)cc2)cc1 , thanks.
## Output 0.06

---

Listed below: EC10, linear values for each entry.
target: Peroxisome proliferator-activated receptor γ (Homo sapiens, UniProt P37231); experiment: cell-based; conditions: PPARγ bioassay; dosing range all; linear model
Sequence (P37231 238-505 limits assumed): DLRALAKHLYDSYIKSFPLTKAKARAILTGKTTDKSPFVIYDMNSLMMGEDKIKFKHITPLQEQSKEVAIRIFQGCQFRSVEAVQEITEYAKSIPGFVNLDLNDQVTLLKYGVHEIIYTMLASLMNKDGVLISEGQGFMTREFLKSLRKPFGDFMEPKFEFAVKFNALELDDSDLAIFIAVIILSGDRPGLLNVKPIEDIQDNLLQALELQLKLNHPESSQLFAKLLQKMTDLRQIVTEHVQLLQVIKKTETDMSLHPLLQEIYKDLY
# respond with the number and nothing more

{"columns": ["compound", "recorded.value"],
 "data": [
  ["O=S(=O)(c1ccc(O)cc1)c1ccc(O)cc1", "1.02E-05"],
  ["C=CCOc1ccc(S(=O)(=O)c2ccc(O)cc2)cc1 [BPS-MAE, 4-[[4-(Allyloxy)phenyl]sulfonyl]phenol]", "6.41E-07"],
  ["Oc1ccc(Sc2ccc(O)cc2)cc1", "1.48E-06"],
  ["Cc1ccc(S(=O)(=O)NC(=O)Nc2cccc(OS(=O)(=O)c3ccc(C)cc3)c2)cc1", "9.42E-07"],
  ["O=C(OCc1ccccc1)c1ccc(O)cc1 [BzPB, Benzyl 4-hydroxybenzoate]", "2.87E-06"]
]}

## Input # value lookup — system Peroxisome proliferator-activated receptor γ (Homo sapiens, UniProt P37231), readout EC10, linear, item Cc1cc(Cc2cc(C)c(O)c(C)c2)cc(C)c1O [TMBPF, Bis(3,5-dimethyl-4-hydroxyphenyl)methane]
## Output 5.55E-07

## Input Then this compound: CC(C)Oc1ccc(S(=O)(=O)c2ccc(O)cc2)cc1
## Output 5.40E-06

## Input Then this compound: Cc1ccc(S(=O)(=O)NC(=O)Nc2ccc(Cc3ccc(NC(=O)NS(=O)(=O)c4ccc(C)cc4)cc3)cc2)cc1
## Output 2.64E-07

## Input Then this compound: CC(C)(c1ccc(O)c(-c2ccccc2)c1)c1ccc(O)c(-c2ccccc2)c1 [BPPH, 2,2-Bis(2-hydroxy-5-biphenylyl)propane]
## Output 9.24E-07

## Input Then this compound: CC(C)c1cc(C(C)(C)c2ccc(O)c(C(C)C)c2)ccc1O
## Output 1.61E-07
